# Test system: calf thymus topoisomerase I
# TEST_DETAILS: Topoisomerase I-mediated DNA cleavage assay (calf thymus topoisomerase I)
# Type: biochemical
# CONDITION_DESCRIPTION: concentration relative to Hoechst 33342 (arbitrarily 1) producing the same cleavage on plasmid DNA, calf thymus topoisomerase I
Give Topo I-mediated DNA cleavage (REC, Relative Effective Concentration) for every item shown.
Answers are plain numbers.

Look over these answered cases.
c1ccc(-c2ccc3[nH]c(-c4ccc5[nH]c(-c6ccc7[nH]cnc7c6)nc5c4)nc3c2)nc1 [Compound 14] : 3.3
c1cc(-c2ccc3[nH]c(-c4ccc5[nH]c(-c6ccc7[nH]cnc7c6)nc5c4)nc3c2)ccn1 [Compound 16] : 2
c1cncc(-c2ccc3[nH]c(-c4ccc5[nH]c(-c6ccc7[nH]cnc7c6)nc5c4)nc3c2)c1 [Compound 15] : 2

Give one value of Topo I-mediated DNA cleavage (REC, Relative Effective Concentration) per listed compound.
1. N#Cc1ccc2[nH]c(-c3ccc4[nH]c(-c5ccc6[nH]cnc6c5)nc4c3)nc2c1 [Compound 11]
2. CCCc1ccc2[nH]c(-c3ccc4[nH]c(-c5ccc6[nH]cnc6c5)nc4c3)nc2c1 [Compound 12]
3. c1ccc(-c2ccc3[nH]c(-c4ccc5[nH]c(-c6ccc7[nH]cnc7c6)nc5c4)nc3c2)cc1 [Compound 13]
4. N#Cc1ccc2[nH]c(-c3ccc4[nH]cnc4c3)nc2c1 [Compound 19]

Return:
1
100
2
1000

Enquiry: Recorded Topo I-mediated DNA cleavage (REC, Relative Effective Concentration) of c1ccc2[nH]c(-c3ccc4[nH]c(-c5ccc6[nH]cnc6c5)nc4c3)nc2c1 [Compound 10] , please.
Return: 1.1
